Cited source: patent US20230250084A1

Each entry below carries its reported Max AC8 Inh (%).
test_system: AC8 (Homo sapiens)
Sequence (P40145 whole entry, species assumed): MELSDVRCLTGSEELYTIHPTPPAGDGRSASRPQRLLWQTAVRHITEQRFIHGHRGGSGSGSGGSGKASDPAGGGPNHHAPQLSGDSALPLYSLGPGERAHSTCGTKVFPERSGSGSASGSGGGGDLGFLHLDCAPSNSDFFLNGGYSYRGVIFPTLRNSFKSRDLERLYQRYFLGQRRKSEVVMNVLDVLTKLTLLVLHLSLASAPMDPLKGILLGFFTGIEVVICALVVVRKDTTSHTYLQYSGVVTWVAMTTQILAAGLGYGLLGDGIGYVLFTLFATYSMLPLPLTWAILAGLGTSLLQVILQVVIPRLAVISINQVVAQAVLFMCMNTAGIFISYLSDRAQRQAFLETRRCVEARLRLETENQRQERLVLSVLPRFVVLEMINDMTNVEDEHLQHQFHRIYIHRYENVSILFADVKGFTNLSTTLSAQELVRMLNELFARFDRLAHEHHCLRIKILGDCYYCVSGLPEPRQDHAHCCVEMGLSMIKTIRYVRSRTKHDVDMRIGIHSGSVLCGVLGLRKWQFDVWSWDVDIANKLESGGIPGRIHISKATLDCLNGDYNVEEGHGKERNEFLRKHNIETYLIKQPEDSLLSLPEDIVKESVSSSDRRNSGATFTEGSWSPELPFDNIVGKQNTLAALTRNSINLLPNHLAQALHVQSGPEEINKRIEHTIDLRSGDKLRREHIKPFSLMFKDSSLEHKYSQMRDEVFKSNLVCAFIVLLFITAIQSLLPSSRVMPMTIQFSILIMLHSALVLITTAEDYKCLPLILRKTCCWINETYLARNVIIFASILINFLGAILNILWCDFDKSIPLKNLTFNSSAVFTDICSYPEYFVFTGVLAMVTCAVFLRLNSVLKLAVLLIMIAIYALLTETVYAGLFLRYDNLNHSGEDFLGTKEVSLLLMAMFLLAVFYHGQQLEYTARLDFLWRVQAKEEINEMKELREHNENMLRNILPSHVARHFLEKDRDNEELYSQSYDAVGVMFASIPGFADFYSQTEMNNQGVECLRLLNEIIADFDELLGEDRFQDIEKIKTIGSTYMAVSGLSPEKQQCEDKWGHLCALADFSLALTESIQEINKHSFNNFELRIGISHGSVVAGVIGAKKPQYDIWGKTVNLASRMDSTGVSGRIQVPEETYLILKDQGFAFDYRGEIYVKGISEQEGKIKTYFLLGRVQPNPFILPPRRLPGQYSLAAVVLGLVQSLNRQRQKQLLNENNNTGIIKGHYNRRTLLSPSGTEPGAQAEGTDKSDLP
method_summary: cAMP accumulation (HTRF) in HEK cells stably expressing AC8, stimulated with A23187
Assay type: cell-based
Design: expressed in transfected cells; host or cells: HEK cells stably expressing AC8 (HEK-AC8), hygromycin B selection
condition_info: Table 1; maximum inhibition of AC8
Description: The primary technology we employed to measure cAMP accumulation was a homogenous time-resolved fluorescence (HTRF) assay, the same technology utilized in the primary screen. […] Briefly, cryopreserved cells were thawed, resuspended in optiMEM (Life Technologies), and plated in white, flat bottom, low-volume, tissue culture-treated 384 well plates (PerkinElmer, Shelton, Conn.). Plates with cells were incubated in a 37° C. humidified incubator for 1 h. […]
Kindly provide the numeric value in % only, without the unit symbol.

These solved cases illustrate the format of a correct answer.
{"molecule": "CCc1ccc(C(=O)Nc2cc(C)nn2-c2nc(CC)cc(=O)[nH]2)cc1 [AC10082]", "unit": "%", "Max AC8 Inh (%)": 19}
{"molecule": "CCc1cc(=O)[nH]c(-n2nc(C)cc2NC(=O)c2ccc(OC)cc2)n1 [AC10076]", "unit": "%", "Max AC8 Inh (%)": 0}
{"molecule": "CCc1cccc(C(=O)Nc2cc(C)nn2-c2nc(CC)cc(=O)[nH]2)c1 [AC10081]", "unit": "%", "Max AC8 Inh (%)": 12}
{"molecule": "CCc1cc(=O)[nH]c(-n2nc(C)cc2NC(=O)c2ccccc2)n1 [AC10068]", "unit": "%", "Max AC8 Inh (%)": 0}

Attention now shifts to the item below.
Query string: Notebook: pull reported Max AC8 Inh (%) for AC8 (Homo sapiens), entry CCc1cc(=O)[nH]c(-n2nc(C)cc2NC(=O)c2ccc(Cl)cc2)n1 [AC10058]
Result string: 32
